TARGET_DESC: CDK7-cyclin H-MAT 1 complex (Homo sapiens)
Sequence (P50613 whole entry): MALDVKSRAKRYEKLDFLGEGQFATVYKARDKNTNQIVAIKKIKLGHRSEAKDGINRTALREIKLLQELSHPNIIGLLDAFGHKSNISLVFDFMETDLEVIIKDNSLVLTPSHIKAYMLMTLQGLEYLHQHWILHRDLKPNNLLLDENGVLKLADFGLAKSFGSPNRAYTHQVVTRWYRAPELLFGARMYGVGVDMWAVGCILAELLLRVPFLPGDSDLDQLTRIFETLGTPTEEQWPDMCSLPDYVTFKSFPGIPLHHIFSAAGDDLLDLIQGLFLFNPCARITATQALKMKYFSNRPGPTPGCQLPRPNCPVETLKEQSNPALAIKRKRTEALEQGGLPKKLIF
Sequence (P51946 whole entry partner): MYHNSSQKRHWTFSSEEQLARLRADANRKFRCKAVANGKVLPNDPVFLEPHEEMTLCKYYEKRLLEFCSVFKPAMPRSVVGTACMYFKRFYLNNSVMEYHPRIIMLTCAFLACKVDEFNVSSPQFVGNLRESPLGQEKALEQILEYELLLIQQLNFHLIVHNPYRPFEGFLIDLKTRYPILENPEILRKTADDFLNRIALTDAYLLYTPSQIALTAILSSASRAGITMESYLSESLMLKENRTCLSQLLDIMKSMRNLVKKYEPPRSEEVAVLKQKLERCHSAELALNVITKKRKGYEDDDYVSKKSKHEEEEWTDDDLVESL
Sequence (P51948 whole entry partner): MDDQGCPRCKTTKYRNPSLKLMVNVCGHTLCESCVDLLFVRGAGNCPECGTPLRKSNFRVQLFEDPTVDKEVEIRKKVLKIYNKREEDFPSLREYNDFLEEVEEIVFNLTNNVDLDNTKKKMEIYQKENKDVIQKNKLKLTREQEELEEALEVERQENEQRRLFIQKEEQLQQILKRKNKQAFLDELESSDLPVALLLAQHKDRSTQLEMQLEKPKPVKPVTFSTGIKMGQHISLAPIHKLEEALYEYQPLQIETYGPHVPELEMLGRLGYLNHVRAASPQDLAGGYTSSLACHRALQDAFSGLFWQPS
METHOD: Kinase specificity assay CDK7/H
CONDITIONS_USED: Table 2
Hi there, I'd appreciate the recorded pIC50 for every entry that follows.
Field pIC50 (float): negative decimal logarithm of the concentration in molar.

Form field: reported pIC50 of Cc1nc(C)c(-c2ccnc(Nc3ccc(N(C)C)c([N+](=O)[O-])c3)n2)s1 [Compound 25]
5.89

Same lookup for Cc1nc(C)c(-c2ccnc(Nc3ccc(N(C)C)c(Cl)c3)n2)s1 [Compound 26] , please.
5.32

----------
System: U2OS
METHOD: 72-h MTT assay, U2OS
Format: cell-based
CONDITIONS_USED: Homo sapiens, read-out: 72-h MTT IC50 U2OS, Table 3, Bone osteosarcoma
OBSERVATION_TYPE: IC50 (nM)
Response body: numeric value in nM, unit text excluded.

Form field: reported IC50 of Cc1nc(N)sc1-c1ccnc(Nc2cccc(I)c2)n1 [Compound 10]
500

----------
TARGET_DESC: CDK4/cyclin D1 (Homo sapiens)
Sequence (P11802 whole entry): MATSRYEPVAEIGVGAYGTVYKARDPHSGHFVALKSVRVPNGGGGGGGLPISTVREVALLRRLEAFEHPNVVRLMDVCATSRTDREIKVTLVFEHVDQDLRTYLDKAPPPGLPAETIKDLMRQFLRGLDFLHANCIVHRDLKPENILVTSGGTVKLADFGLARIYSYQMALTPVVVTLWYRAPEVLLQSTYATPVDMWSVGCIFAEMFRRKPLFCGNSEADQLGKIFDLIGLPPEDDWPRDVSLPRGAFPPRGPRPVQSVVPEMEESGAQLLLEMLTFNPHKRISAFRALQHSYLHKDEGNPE
Sequence (P24385 whole entry partner): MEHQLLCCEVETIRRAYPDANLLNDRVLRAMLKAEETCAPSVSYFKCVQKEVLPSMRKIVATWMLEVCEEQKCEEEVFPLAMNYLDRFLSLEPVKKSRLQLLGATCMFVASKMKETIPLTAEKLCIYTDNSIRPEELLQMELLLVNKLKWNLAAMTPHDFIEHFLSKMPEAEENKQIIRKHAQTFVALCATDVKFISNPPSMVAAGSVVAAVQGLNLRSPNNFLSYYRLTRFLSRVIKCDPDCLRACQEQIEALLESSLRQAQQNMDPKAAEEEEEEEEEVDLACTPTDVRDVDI
METHOD: Kinase assay CDK4/cyclin D1;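 further: Enzyme: His6-tagged recombinant human CDK4 produced in baculovirus-infected Sf9 insect cells and purified by metal-chelate chromatography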
hey, just use T if measured IC50 is less than 1000 nM, otherwise F

Find out if reported IC50 for Cc1nc(NS(C)(=O)=O)sc1-c1ccnc(Nc2cccc([N+](=O)[O-])c2)n1 is less than 1000 nM
F

Same lookup for Cc1nc(NCCO)sc1-c1ccnc(Nc2cccc([N+](=O)[O-])c2)n1 , please.
T

Same lookup for COc1ccc(Nc2nccc(-c3sc(=O)n(C)c3C)n2)cc1 , please.
T

Same lookup for Cc1nc(N)sc1-c1ccnc(Nc2ccc(CCO)cc2)n1 , please.
F

Same lookup for Cc1nc(NC(=O)CCl)sc1-c1ccnc(Nc2cccc([N+](=O)[O-])c2)n1 , please.
T

Same lookup for Cc1nc(N)sc1-c1ccnc(Nc2cccc(Br)c2)n1 , please.
F

Same lookup for Cc1nc(N)sc1-c1ccnc(Nc2ccc(I)c([N+](=O)[O-])c2)n1 , please.
T

Same lookup for Cc1nc(NCCO)sc1-c1ccnc(Nc2ccc(F)cc2)n1 , please.
F

----------
Tested on: A549
METHOD: 72-h MTT cytotoxicity assay, A549
Assay type: cell-based, human
CONDITIONS_USED: Homo sapiens, A549, read-out: 72-h MTT in vitro IC50 (μM) A549; Table 1; 72 h
Description: In short: cells were seeded into 96-well plates according to doubling time and incubated overnight at 37° C. Test compounds were made up in DMSO and a 1/3 dilution series prepared in 100 μL cell media, added to cells (in triplicates) and incubated for 72 ho at 37° C. MTT was made up as a stock of 5 mg/mL in cell media and filter-sterilised. Media was removed from cells followed by a wash with 200 μL PBS. MTT solution was then added at 20 μL per well and incubated in the dark at 37° C. for 4 h. […]
OBSERVATION_TYPE: IC50 (µM)
Response body: numeric value in µM, unit text excluded.

What value of IC50 on A549 does Cc1c(-c2ccnc(Nc3ccc(O)cc3)n2)sc(=O)n1C have?
0.29

Same lookup for Cc1c(-c2ccnc(Nc3cccc([N+](=O)[O-])c3)n2)sc(=O)n1C , please.
0.01

Same lookup for Cc1nc(N(C)C)sc1-c1ccnc(Nc2cccc([N+](=O)[O-])c2)n1 , please.
2.47

Same lookup for Cc1c(-c2ccnc(Nc3ccc(F)cc3)n2)sc(=O)n1C , please.
0.51

Same lookup for Cc1nc(C)c(-c2ccnc(Nc3ccc(N(C)C)c(Cl)c3)n2)s1 , please.
0.29

Same lookup for Cc1cc(Nc2nccc(-c3sc(=O)n(C)c3C)n2)ccc1F , please.
2.41

Same lookup for Cc1nc(N)sc1-c1ccnc(Nc2ccc(Cl)cc2)n1 , please.
2.94

Same lookup for Cc1c(-c2ccnc(Nc3ccc(Cl)cc3)n2)sc(=O)n1C , please.
0.89

Same lookup for Cc1nc(N)sc1-c1ccnc(Nc2cccc(O)c2)n1 , please.
0.95

Same lookup for COc1ccc(Nc2nccc(-c3sc(N)nc3C)n2)cc1 , please.
1.55

Same lookup for CNc1nc(C)c(-c2ccnc(Nc3ccc(I)c([N+](=O)[O-])c3)n2)s1 , please.
0.94

Same lookup for COc1ccc(Nc2nccc(-c3sc(C)nc3C)n2)cc1N(C)C , please.
2.07

Same lookup for Cc1c(-c2ccnc(Nc3cccc(O)c3)n2)sc(=O)n1C , please.
0.66

Same lookup for COc1ccc(Nc2nccc(-c3sc(C)nc3C)n2)cc1O , please.
0.44

Same lookup for Cc1nc(C)c(-c2ccnc(Nc3ccc(CCO)cc3)n2)s1 , please.
2.79

Same lookup for Cc1nc(NC(=O)CCl)sc1-c1ccnc(Nc2ccc(F)cc2)n1 , please.
0.33

Same lookup for Cc1nc(N)sc1-c1ccnc(Nc2cccc(I)c2)n1 , please.
0.29

Same lookup for Cc1c(-c2ccnc(Nc3ccc(F)c([N+](=O)[O-])c3)n2)sc(=O)n1C , please.
1.12

Same lookup for Cc1c(-c2ccnc(Nc3ccc(N(C)C)cc3)n2)sc(=O)n1C , please.
2.2

----------
Target or system UniProtKB P23443: recorded IC50 listed per item.
Sequence (P23443 24-525): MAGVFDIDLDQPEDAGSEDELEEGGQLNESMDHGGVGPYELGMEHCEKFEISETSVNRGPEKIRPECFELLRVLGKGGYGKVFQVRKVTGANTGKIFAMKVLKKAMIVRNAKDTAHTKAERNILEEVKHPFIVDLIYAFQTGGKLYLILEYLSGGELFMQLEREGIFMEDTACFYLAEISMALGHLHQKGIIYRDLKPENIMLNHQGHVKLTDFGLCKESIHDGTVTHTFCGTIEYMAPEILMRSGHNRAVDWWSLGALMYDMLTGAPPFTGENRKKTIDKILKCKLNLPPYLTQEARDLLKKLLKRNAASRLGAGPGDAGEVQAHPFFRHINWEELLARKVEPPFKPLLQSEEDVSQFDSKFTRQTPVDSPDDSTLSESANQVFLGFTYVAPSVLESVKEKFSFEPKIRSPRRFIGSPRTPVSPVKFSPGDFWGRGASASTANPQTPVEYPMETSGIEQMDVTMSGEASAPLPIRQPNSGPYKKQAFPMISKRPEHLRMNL
Response body: numeric value in µM, unit text excluded.

Form field: reported IC50 of Cc1nc(C)c(-c2ccnc(Nc3ccc(N(C)C)c(Cl)c3)n2)s1 [Compound 26]
32

Same lookup for Cc1nc(C)c(-c2ccnc(Nc3ccc(N(C)C)c([N+](=O)[O-])c3)n2)s1 [Compound 25] , please.
25

----------
TARGET_DESC: CDK2/cyclin E (Homo sapiens, UniProt P24941)
Construct: His6
METHOD: Kinase assay CDK2/cyclin E
Type: biochemical
CONDITIONS_USED: Table 1; read-out: Kinase inhibition, IC50 (μM) CDK2/E
hey, just use Fulfilled if measured IC50 is less than 0.2 µM, otherwise Not fulfilled

Find out if reported IC50 for COc1ccc(Nc2nccc(-c3sc(N)nc3C)n2)cc1 is less than 0.2 µM
Not fulfilled

Same lookup for COc1ccc(Nc2nccc(-c3sc(C)nc3C)n2)cc1N(C)C , please.
Not fulfilled

Same lookup for Cc1nc(NCCO)sc1-c1ccnc(Nc2ccc(F)cc2)n1 , please.
Fulfilled

Same lookup for COc1ccc(Nc2nccc(-c3sc(=O)n(C)c3C)n2)cc1 , please.
Not fulfilled

Same lookup for Cc1ccc(Nc2nccc(-c3sc(=O)n(C)c3C)n2)cc1I , please.
Not fulfilled

Same lookup for Cc1c(-c2ccnc(Nc3ccc(F)c([N+](=O)[O-])c3)n2)sc(=O)n1C , please.
Fulfilled

Same lookup for Cc1nc(NS(C)(=O)=O)sc1-c1ccnc(Nc2cccc([N+](=O)[O-])c2)n1 , please.
Fulfilled

Same lookup for Cc1cc(Nc2nccc(-c3sc(=O)n(C)c3C)n2)ccc1Cl , please.
Not fulfilled

Same lookup for Cc1nc(NC(=O)CCl)sc1-c1ccnc(Nc2cccc([N+](=O)[O-])c2)n1 , please.
Fulfilled

Same lookup for Cc1c(-c2ccnc(Nc3ccc(Cl)cc3)n2)sc(=O)n1C , please.
Fulfilled

Same lookup for Cc1nc(N)sc1-c1ccnc(Nc2ccc(CCO)cc2)n1 , please.
Not fulfilled

Same lookup for CNc1nc(C)c(-c2ccnc(Nc3ccc(N(C)C)cc3)n2)s1 , please.
Not fulfilled

Same lookup for Cc1nc(N)sc1-c1ccnc(Nc2cccc(Br)c2)n1 , please.
Fulfilled

Same lookup for Cc1nc(NCCO)sc1-c1ccnc(Nc2cccc([N+](=O)[O-])c2)n1 , please.
Fulfilled

Same lookup for Cc1nc(N)sc1-c1ccnc(Nc2cccc(O)c2)n1 , please.
Fulfilled

Same lookup for COc1ccc(Nc2nccc(-c3sc(C)nc3C)n2)cc1OC , please.
Fulfilled

Same lookup for Cc1nc(NC(=O)CCl)sc1-c1ccnc(Nc2ccc(F)cc2)n1 , please.
Not fulfilled

Same lookup for CNc1nc(C)c(-c2ccnc(Nc3ccc(I)c([N+](=O)[O-])c3)n2)s1 , please.
Fulfilled

----------
TARGET_DESC: CDK2/cyclin E (Homo sapiens, UniProt P24941)
Construct: His6
METHOD: Kinase assay CDK2/cyclin E
Format: biochemical
CONDITIONS_USED: Table 1; read-out: Kinase inhibition, IC50 (μM) CDK2/E
Hi there, I'd appreciate the recorded IC50 for every entry that follows.
Response body: numeric value in µM, unit text excluded.

What value of IC50 on CDK2/cyclin E (Homo sapiens, UniProt P24941) does Cc1nc(N)sc1-c1ccnc(Nc2ccc(Cl)cc2)n1 have?
0.43

Same lookup for Cc1nc(N)sc1-c1ccnc(Nc2cccc(Cl)c2)n1 , please.
0.02

Same lookup for Cc1nc(N)sc1-c1ccnc(Nc2cccc(I)c2)n1 , please.
0.05

Same lookup for Cc1c(-c2ccnc(Nc3cccc(O)c3)n2)sc(=O)n1C , please.
0.12

----------
System: tumour cells
METHOD: 72-h MTT assay, mean over tumour cell lines
Type: cell-based
CONDITIONS_USED: Homo sapiens, Table 3
From the text: The compounds from the examples above were subjected to a standard cellular proliferation assay using human tumour cell lines obtained from the ATCC (American Type Culture Collection, 10801 University Boulevard, Manessas, Va. 20110-2209, USA). […]
OBSERVATION_TYPE: IC50 (nM)
Response body: numeric value in nM, unit text excluded.

Form field: reported IC50 of Cc1nc(N)sc1-c1ccnc(Nc2cccc(I)c2)n1 [Compound 10]
280

Same lookup for Cc1nc(N)sc1-c1ccnc(Nc2cccc(Br)c2)n1 [Compound 16] , please.
680

Same lookup for Cc1nc(N)sc1-c1ccnc(Nc2ccc(CCO)cc2)n1 [Compound 15] , please.
1030
